# assayRemarks: activity coefficient (dimensionless); of the first substance listed, at infinite dilution; xn = mol fraction of the nth substance listed
# conditionContext: 333.1 K; 101.33 kPa; Liquid; Chromatography; x1 = 0
parameter: activity coefficient
Answer with the value's number alone.

Illustrative cases are given below, each with its answer.
INSERT INTO measurements (molecule, measurement) VALUES
  ('CCCCCCC [heptane] + CCCC[N+]1(C)CCCC1.O=S(=O)([N-]S(=O)(=O)C(F)(F)F)C(F)(F)F', 15.3),
  ('CCCCCCCCCC [decane] + CCCC[N+]1(C)CCCC1.O=S(=O)([N-]S(=O)(=O)C(F)(F)F)C(F)(F)F', 45.3),
  ('CCCCCCC [heptane] + CCCCn1cc[n+](C)c1.F[B-](F)(F)F', 69),
  ('CCCCCCCCCC [decane] + CCCCn1cc[n+](C)c1.F[B-](F)(F)F', 144),
  ('CCCCCCCC [octane] + CCCCn1cc[n+](C)c1.F[B-](F)(F)F', 83.7);

Q: Determine from records and report activity coefficient for Cc1ccccc1C [1,2-dimethylbenzene] + CCCC[n+]1ccc(C)cc1.F[B-](F)(F)F
Ans: 4.55

Q: Determine from records and report activity coefficient for CCCCCCCCCC [decane] + CCCC[n+]1ccc(C)cc1.F[B-](F)(F)F
Ans: 234

Q: Determine from records and report activity coefficient for CCCCCC [hexane] + CCCC[N+]1(C)CCCC1.O=S(=O)([N-]S(=O)(=O)C(F)(F)F)C(F)(F)F
Ans: 10.2

Q: Determine from records and report activity coefficient for CC1CCCC1 [methylcyclopentane] + CCCC[n+]1ccc(C)cc1.F[B-](F)(F)F
Ans: 26.4

Q: Determine from records and report activity coefficient for Cc1ccccc1 [toluene] + CCCC[n+]1ccc(C)cc1.F[B-](F)(F)F
Ans: 2.69

Q: Determine from records and report activity coefficient for CCCCCCC [heptane] + CCCC[n+]1ccc(C)cc1.F[B-](F)(F)F
Ans: 73.7
